Kindly supply the reported GI50 values for the records listed here.
# Test system: SF-539
# assay-explanation: NCI tumour cell line growth inhibition, 48 h
The source made the active and inactive calls. Rule as the data show it: active = GI50 up to about 1.1 µM and inactive = higher. Numbered stars: 1 amine (or outer) side, 2 acyl side, 3 side chain; on linkers, the order of the positions; unused ones are H or OH. Bridge positions count the residues as written; N and C are the ends. Square brackets hold non-standard residues; d marks the D form. Peptide text beside a SMILES is read from it. I, II: the chains in the order shown. * marks the point of attachment. Actinocin(9to1) = Cc1c2oc3c(C)ccc(C(=O)[*:1])c3nc-2c(C(=O)[*:2])c(N)c1=O; NMeH = CN[CH](Cc1c[nH]cn1)C(=O)O; Boc = CC(C)(C)OC(=O)*; OBn = c1ccc(CO*)cc1; Sar = CNCC(=O)O

Requested read-out: GI50. Entry: O=C1C2=C(c3ccccc31)C(c1ccccc1)NC(S)=N2 (stereo not given) 19.2 µM (inactive)

# iterate: Cc1c2oc3c(C)ccc(C(=O)NC4C(=O)NC(C(C)C)C(=O)N5CCCC5C(=O)N(C)CC(=O)N(C)C(Cc5cnc[nH]5)C(=O)OC4C)c3nc-2c(C(=O)NC2C(=O)NC(C(C)C)C(=O)N3CCCC3C(=O)N(C)CC(=O)N(C)C(Cc3cnc[nH]3)C(=O)OC2C)c(N)c1=O (stereo not given) (I: TVP[Sar][NMeH] / II: TVP[Sar][NMeH]; ester I:1-I:C, II:1-II:C; linker I:N-II:N via Actinocin(9to1); configuration not given here) 28.8 µM (inactive)

# iterate: CC(C)CC(NC(=O)OC(C)(C)C)C(=O)NC(CC(=O)OCc1ccccc1)C(N)=O (stereo not drawn) (Boc-Leu-Asp(OBn)-NH2; configuration not given here) > 100 µM (inactive)

# iterate: CNC1Cc2c[nH]c3cccc(c23)C12C=C(C)C(=O)O2 (stereo not given) > 100 µM (inactive)

# iterate: COc1ccc2c(c1)nc1n2C(c2c(Cl)cccc2Cl)SC1 (stereo not given) 9.1 µM (inactive)

* * *

# Test system: SNB-78
# assay-explanation: NCI tumour cell line growth inhibition, 48 h
Active and inactive are the calls of the source. No stated cut-off is given here; in the data, active = GI50 up to about 1.1 µM and inactive = higher.
measurement-name: GI50

Query GI50 on SNB-78 for O=C1c2c(nc3ccccc3c2-c2ccccc2)CN1Nc1ccccn1 11.5 µM (inactive)

# iterate: O=C1C=C(Nc2ccc(Cl)cc2Cl)c2ccccc2C1=O 44.1 µM (inactive)

# iterate: O=C1/C(=C/c2ccc(Cl)cc2)COc2ccc(Br)cc21 > 100 µM (inactive)

# iterate: COC(=O)C1CCc2nnc(-c3cccnc3)n21 (stereo unspecified) > 100 µM (inactive)

# iterate: COc1cc(NCC(C#N)C#N)ccc1/N=N/c1ccc(Cl)cc1 36.7 µM (inactive)

# iterate: COc1cc(Nc2c3ccccc3nc3ccccc23)ccc1NS(C)(=O)=O 7.67 µM (inactive)

# iterate: CC(=O)C1=NN(c2ccccc2)C2(S1)SC(c1ccccc1)(c1ccccc1)c1ccccc12 (stereo unspecified) 30.8 µM (inactive)

# iterate: CC(=O)NNc1nc(C)c(C(=O)/C=C/c2ccc(/C=C/C(=O)c3sc(NNC(C)=O)nc3C)cc2)s1 > 100 µM (inactive)

# iterate: COc1cc2nc(-c3cccc(N(C)C)c3)cc(O)c2cc1OC 5.83 µM (inactive)

# iterate: O=[N+]([O-])c1cc(-c2nnc(S)[nH]2)ccc1O > 100 µM (inactive)

# iterate: O=C(O)C1OC(Oc2cc(O)c3c(=O)cc(-c4ccc(O)cc4)oc3c2)C(O)C(O)C1O (stereo unspecified) > 100 µM (inactive)

# iterate: COc1cc([C@@H]2c3cc4c(cc3[C@@H](NC(=O)c3cccc(C#N)c3)C3COC(=O)[C@@H]32)OCO4)cc(OC)c1O (stereo partly specified) 9.33 µM (inactive)

# iterate: CN(C)CC(/C(Cc1ccccc1)=N\NC(=S)NN)c1ccccc1 (stereo unspecified) > 100 µM (inactive)

# iterate: Cc1c2ccnc(C(F)(F)F)c2cc2c1[nH]c1ccccc12 86.5 µM (inactive)

# iterate: Cc1cc(O)nc(NNC(C#N)c2ccco2)n1 (stereo unspecified) > 100 µM (inactive)

# iterate: O=C(O)c1ccc([Se][Se]c2ccc(C(=O)O)cc2)cc1 18.7 µM (inactive)

# iterate: C=CCc1ccc(Oc2cc(CC=C)c3c(c2O)O[C@@H](CO)[C@H]3c2ccc(O)c(-c3cc(CC=C)ccc3O)c2)cc1 52 µM (inactive)

# iterate: CC(C)N(C(=O)C12CC3CC(CC(C3)C1)C2)C(C)C > 50 µM (inactive)

# iterate: N#CCC(=O)Nc1cccc(C(F)(F)F)c1 > 100 µM (inactive)

# iterate: COC12C=CC(CC1)c1c(O)ccc(O)c12 (stereo unspecified) 49.2 µM (inactive)

# iterate: Clc1ccc(OCc2nnc3n2N=C(c2ccccc2)CS3)c(Cl)c1 9.42 µM (inactive)

# iterate: COc1ccc(N2C(=O)C3c4[nH]c5ccccc5c4C4CC(C)(C)CC(C)(C)C4C3C2=O)cc1 (stereo unspecified) 21.4 µM (inactive)

# iterate: CC(C)(C)CI 32.1 µM (inactive)

# iterate: C/C(=N\NC(N)=S)c1ccc(C)c(C)c1 > 100 µM (inactive)

# iterate: CC(C)(C)c1cc([Si](C)(C)C)c(C#N)c([Si](C)(C)C)c1 53.2 µM (inactive)

# iterate: COc1cc(C(C#N)NNC(=O)Cc2ccccc2)cc(OC)c1OC (stereo unspecified) > 100 µM (inactive)

Just for reference, ChEMBL document CHEMBL1201862 is where these values come from.
